test: Physical properties: equilibrium solubility and salt disproportionation (XRPD, NMR); assay type: physicochemical; conditions: water, thermodynamic from solid, crystalline zwitterionic form from disproportionation of the K+ salt, read-out: Aqueous solubility of crystalline zwitterionic form

compound	solubility at 24 h
C=C[C@@H]1C[C@]1(NC(=O)[C@@H]1C[C@@H]2CN1C(=O)[C@H](C(C)(C)C)NC(=O)O[C@@H]1C[C@H]1CCCCCc1nc3ccc(OC)cc3cc1O2)C(=O)NS(=O)(=O)C1CC1 [WO 2008/057209 Example 110]	< 9 µg/mL

* * *

test: Rat pharmacokinetics per os (plasma AUC, liver concentration); conditions: plasma, po, 25 mg/kg
endpoint label: AUC (µM·h)

compound structure string	result unit	obs value
C=C[C@@H]1C[C@]1(NC(=O)[C@@H]1C[C@@H]2CN1C(=O)[C@H](C(C)(C)C)NC(=O)O[C@@H]1C[C@H]1CCCCCc1nc3ccc(OC)cc3cc1O2)C(=O)NS(=O)(=O)C1CC1	µM·h	5.8

* * *

assay: Physical properties: equilibrium solubility and salt disproportionation (XRPD, NMR); format: physicochemical; conditions: water, thermodynamic from solid, K+ salt form, read-out: Aqueous solubility of K+ salt form
endpoint label: solubility at 24 h (mg/mL)

compound structure string	endpoint label	result unit	obs value
C=C[C@@H]1C[C@]1(NC(=O)[C@@H]1C[C@@H]2CN1C(=O)[C@H](C(C)(C)C)NC(=O)O[C@@H]1C[C@H]1CCCCCc1nc3ccc(OC)cc3cc1O2)C(=O)NS(=O)(=O)C1CC1	solubility at 24 h	mg/mL	9.7
